Values were extracted from PubChem BioAssay AID1745844.

# Tested on: rodent lifetime carcinogenesis bioassay, tumor incidence TD50
# measurementDescription: carcinogenic potency in animals, long-term in vivo studies, CPDB compilation (AID 1745844)
# assayContext: rat; strain Fischer 344; females; by gavage; site: nasal cavity; lesion: carcinoma, NOS; dosed 100 weeks; study length 104 weeks

smilesRecord: CC(C)=CCl
measuredOn: rodent lifetime carcinogenesis bioassay, tumor incidence TD50
TD50: 52.7 mg/kg/day

====

# Test system: rodent lifetime carcinogenesis bioassay, tumor incidence TD50
# measurementDescription: carcinogenic potency in animals, long-term in vivo studies, CPDB compilation (AID 1745844)
# assayContext: mouse; strain B6C3F1; females; in drinking water; site: liver; lesion: hepatocellular adenoma + hepatoblastoma + hepatocellular carcinoma; dosed 104 weeks; study length 105 weeks
attributeMeasured: TD50 (mg/kg/day)

smilesRecord: O
attributeMeasured: TD50
experimentalValue: 4410

====

# System: rodent lifetime carcinogenesis bioassay, tumor incidence TD50
# measurementDescription: carcinogenic potency in animals, long-term in vivo studies, CPDB compilation (AID 1745844)
# assayContext: rat; strain F344/DuCrj; males; in feed; site: oral cavity; lesion: squamous-cell carcinoma; dosed 55 weeks; study length 55 weeks
attributeMeasured: TD50

smilesRecord: Cn1c(N)nc2c3cccnc3ccc21
attributeMeasured: TD50
experimentalValue: 44.8 mg/kg/day

====

# Tested on: rodent lifetime carcinogenesis bioassay, tumor incidence TD50
# measurementDescription: carcinogenic potency in animals, long-term in vivo studies, CPDB compilation (AID 1745844)
# assayContext: rat; strain Charles River CD (Sprague-Dawley); females; by gavage; site: any site (literature study); lesion: several types; types named in the paper; dosed 104 weeks; study length 104 weeks
Activity calls are given as the source filed them. How the calls were made is not given here.
attributeMeasured: TD50

compound: Cn1cc(OCC(O)CNC(C)(C)C)c2ccccc2c1=O (stereo unspecified)
experimentalValue: 40 mg/kg/day (inactive)

====

# System: rodent lifetime carcinogenesis bioassay, tumor incidence TD50
# measurementDescription: carcinogenic potency in animals, long-term in vivo studies, CPDB compilation (AID 1745844)
# assayContext: mouse; strain BALB/cLacDp; males; in feed; site: liver; lesion: angiosarcoma; dosed 80 weeks; study length 119 weeks

smilesRecord: O=C1c2ccccc2CN2C(=O)c3ccccc3CN12
TD50: 879 mg/kg/day

====

# Test system: rodent lifetime carcinogenesis bioassay, tumor incidence TD50
# measurementDescription: carcinogenic potency in animals, long-term in vivo studies, CPDB compilation (AID 1745844)
# assayContext: rat; strain Fischer 344; males; by gavage; site: liver; lesion: hepatocellular adenoma + hepatocellular carcinoma + neoplastic nodule; dosed 104 weeks; study length 104 weeks

smilesRecord: O=P(OCCCl)(OCCCl)OCCCl
valueUnits: mg/kg/day
TD50: 633

====

# System: rodent lifetime carcinogenesis bioassay, tumor incidence TD50
# measurementDescription: carcinogenic potency in animals, long-term in vivo studies, CPDB compilation (AID 1745844)
# assayContext: mouse; strain B6C3F1; females; in drinking water; site: thyroid gland; lesion: follicular-cell adenoma + follicular-cell carcinoma; dosed 103 weeks; study length 104 weeks
attributeMeasured: TD50 (mg/kg/day)

smilesRecord: Nc1ccc(Cc2ccc(N)cc2)cc1
experimentalValue: 128

====

# System: rodent lifetime carcinogenesis bioassay, tumor incidence TD50
# measurementDescription: carcinogenic potency in animals, long-term in vivo studies, CPDB compilation (AID 1745844)
# assayContext: rat; strain Fischer 344; males; in drinking water; site: liver; lesion: hepatocellular carcinoma + neoplastic nodule; dosed 104 weeks; study length 104 weeks
attributeMeasured: TD50

smilesRecord: Cc1ccc(S(=O)(=O)Oc2ccc(N=Nc3ccc(-c4ccc(N=Nc5c(O)ccc6cc(S(=O)(=O)O)cc(S(=O)(=O)O)c56)c(C)c4)cc3C)cc2)cc1
measuredOn: rodent lifetime carcinogenesis bioassay, tumor incidence TD50
attributeMeasured: TD50
experimentalValue: 7.02 mg/kg/day

====

# Tested on: rodent lifetime carcinogenesis bioassay, tumor incidence TD50
# measurementDescription: carcinogenic potency in animals, long-term in vivo studies, CPDB compilation (AID 1745844)
# assayContext: mouse; strain B6C3F1; males; in feed; site: liver; lesion: hepatocellular carcinoma; dosed 96 weeks; study length 104 weeks
Activity calls are given as the source filed them. The rule behind the calls is not given here.
Possible outcomes: active, inactive

smilesRecord: c1ccc2c(c1)[nH]c1ccccc12
classification: active

smilesRecord: COc1ccc([C@@H]2CC(=O)c3c(O)cc(O[C@@H]4O[C@H](CO[C@@H]5O[C@@H](C)[C@H](O)[C@@H](O)[C@H]5O)[C@@H](O)[C@H](O)[C@H]4O)cc3O2)cc1OC
classification: inactive

smilesRecord: CCOc1ccc(NC(C)=O)cc1
classification: inactive

====

# System: rodent lifetime carcinogenesis bioassay, tumor incidence TD50
# measurementDescription: carcinogenic potency in animals, long-term in vivo studies, CPDB compilation (AID 1745844)
# assayContext: rat; strain Fischer 344; females; in drinking water; site: skin; lesion: basal-cell adenoma; dosed 60 weeks; study length 60 weeks

smilesRecord: Cc1cc(-c2ccc(N)c(C)c2)ccc1N
valueUnits: mg/kg/day
TD50: 5.77

====

# Test system: rodent lifetime carcinogenesis bioassay, tumor incidence TD50
# measurementDescription: carcinogenic potency in animals, long-term in vivo studies, CPDB compilation (AID 1745844)
# assayContext: rat; strain Fischer 344; males; by gavage; site: nasal cavity; lesion: adenoma, NOS; dosed 103 weeks; study length 104 weeks

compound: CC(I)C1OCC(CO)O1 (stereo unspecified)
valueUnits: mg/kg/day
TD50: 1210

====

# System: rodent lifetime carcinogenesis bioassay, tumor incidence TD50
# measurementDescription: carcinogenic potency in animals, long-term in vivo studies, CPDB compilation (AID 1745844)
# assayContext: rat; strain Wistar; males; in feed; site: pituitary gland; lesion: adenoma; dosed 75 weeks; study length 75 weeks
Activity calls are given as the source filed them. No rule for the calls is given here.

smilesRecord: COC(=O)[C@H]1[C@H]2C[C@@H]3c4[nH]c5cc(OC)ccc5c4CCN3C[C@H]2C[C@@H](OC(=O)c2cc(OC)c(OC)c(OC)c2)[C@@H]1OC
TD50: 38.3 mg/kg/day (inactive)

====

# System: rodent lifetime carcinogenesis bioassay, tumor incidence TD50
# measurementDescription: carcinogenic potency in animals, long-term in vivo studies, CPDB compilation (AID 1745844)
# assayContext: mouse; strain B6C3F1; females; inhaled; site: heart + liver + subcutaneous tissue; lesion: hemangiosarcoma; dosed 61 weeks; study length 61 weeks

smilesRecord: C=CC=C
measuredOn: rodent lifetime carcinogenesis bioassay, tumor incidence TD50
TD50: 147 mg/kg/day

====

# Tested on: rodent lifetime carcinogenesis bioassay, tumor incidence TD50
# measurementDescription: carcinogenic potency in animals, long-term in vivo studies, CPDB compilation (AID 1745844)
# assayContext: rat; strain F344/DuCrj; males; in drinking water; site: urinary bladder; lesion: transitional-cell carcinoma; dosed 106 weeks; study length 112 weeks

smilesRecord: CCCCN(CCCCO)N=O
TD50: 0.432 mg/kg/day

====

# Test system: rodent lifetime carcinogenesis bioassay, tumor incidence TD50
# measurementDescription: carcinogenic potency in animals, long-term in vivo studies, CPDB compilation (AID 1745844)
# assayContext: mouse; strain ICR/Jcl; males; in feed; site: liver; lesion: several types; types named in the paper; dosed 52 weeks; study length 65 weeks
attributeMeasured: TD50

smilesRecord: CCCCN(CCCC)N=O
attributeMeasured: TD50
experimentalValue: 2.65 mg/kg/day

====

# System: rodent lifetime carcinogenesis bioassay, tumor incidence TD50
# measurementDescription: carcinogenic potency in animals, long-term in vivo studies, CPDB compilation (AID 1745844)
# assayContext: mouse; strain B6C3F1; males; inhaled; site: heart; lesion: hemangiosarcoma; dosed 40 weeks; study length 104 weeks

smilesRecord: C=CC=C
TD50: 21.9 mg/kg/day

====

Measured TD50 accompanies every entry in the list below.
# System: rodent lifetime carcinogenesis bioassay, tumor incidence TD50
# measurementDescription: carcinogenic potency in animals, long-term in vivo studies, CPDB compilation (AID 1745844)
# assayContext: mouse; strain B6C3F1; females; in feed; site: any site (literature study); lesion: several types; types named in the paper; dosed 80 weeks; study length 90 weeks
Active and inactive are the calls of the source. How the calls were made is not given here.

molecule: ClC1=C(Cl)C2(Cl)C3C(Cl)C(Cl)CC3C1(Cl)C2(Cl)Cl (stereo not drawn)
TD50: 5.16 mg/kg/day

molecule: ClC1=C(Cl)[C@]2(Cl)[C@@H]3[C@H]4C[C@H]([C@@H]5O[C@H]45)[C@@H]3[C@@]1(Cl)C2(Cl)Cl
TD50: 6.88 mg/kg/day (inactive)

molecule: O=C1C2(Cl)C3(Cl)C4(Cl)C(Cl)(Cl)C5(Cl)C3(Cl)C1(Cl)C5(Cl)C24Cl (stereo not drawn)
TD50: 1.57 mg/kg/day

====

# System: rodent lifetime carcinogenesis bioassay, tumor incidence TD50
# measurementDescription: carcinogenic potency in animals, long-term in vivo studies, CPDB compilation (AID 1745844)
# assayContext: rat; strain Fischer 344; females; in feed; site: liver; lesion: hepatocellular adenoma + hepatocellular carcinoma + neoplastic nodule; dosed 92 weeks; study length 104 weeks

smilesRecord: C/C=C(/C)C(=O)O[C@H]1CCN2CC=C(COC(=O)[C@@](O)([C@H](C)OC)C(C)(C)O)[C@H]12
TD50 / mg/kg/day: 22.7
